System name: σ1-receptor (Cavia porcellus)
Construct: guinea pig brains were homogenized; from tissue; host or cells: guinea pig brain membranes
Experiment notes: Sigma-1 receptor binding assay, [3H](+)-pentazocine, brain membranes
Run conditions: compound 10^−7 M; [3H](+)-pentazocine 0.5 nM; guinea pig brain membranes
Reported property: inhibition at 0.1 µM (%)

compound="Clc1ccc(-n2ccc(NCCN3CCN(C4CCCCC4)CC3)n2)cc1Cl [Example 14]" numeric_readout=100

[a] Cc1cc(SCCN2CCOCC2)nn1-c1ccc(Cl)c(Cl)c1.O=C(O)C(=O)O [Example 68, oxalate]
[b] O=C(CN1CCOCC1)Nc1ccn(-c2ccc(Cl)c(Cl)c2)n1 [Example 2]
Select one. Lower inhibition at 0.1 µM: a or b Return value: the label identifying the chosen record.
b
(b: 37.8%, a: 93.5%)

---

System name: σ1-receptor (Cavia porcellus, UniProt Q60492)
Construct: guinea pig brains were homogenized; from tissue; host or cells: guinea pig brain membranes
Sequence (Q60492 whole entry): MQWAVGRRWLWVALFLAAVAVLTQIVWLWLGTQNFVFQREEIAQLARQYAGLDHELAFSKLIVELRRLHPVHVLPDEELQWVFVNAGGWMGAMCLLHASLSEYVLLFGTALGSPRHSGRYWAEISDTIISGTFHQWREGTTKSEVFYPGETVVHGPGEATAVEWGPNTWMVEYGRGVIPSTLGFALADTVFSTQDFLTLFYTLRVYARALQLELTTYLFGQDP
Experiment notes: Sigma-1 receptor binding assay, [3H](+)-pentazocine, brain membranes
Run conditions: compound 10^−8 M; [3H](+)-pentazocine 0.5 nM; guinea pig brain membranes
Reported property: inhibition at 0.01 µM (%)

compound="Clc1ccc(-n2ccc(NCCN3CCOCC3)n2)cc1Cl [Example 3]" unit=% numeric_readout=54.3
compound="O=C(CN1CCOCC1)Nc1ccn(-c2ccc(Cl)c(Cl)c2)n1 [Example 2]" unit=% numeric_readout=25.9
compound="CCN(CC)CCSc1cc(C)n(-c2ccc(Cl)c(Cl)c2)n1.O=C(O)C(=O)O [Example 70]" unit=% numeric_readout=34.6

[1] CCN(CC)CC(=O)Nc1ccn(-c2ccc(Cl)c(Cl)c2)n1 [Example 4]
[2] Cc1cc(SCCN2CCOCC2)nn1-c1ccc(Cl)c(Cl)c1.O=C(O)C(=O)O [Example 68, oxalate]
Lowest inhibition at 0.01 µM? choose 1 or 2 Indicate your choice by writing its label.
1
(1: 51.7%, 2: 91.2%)

---

Measured melting point values are reported for all entries that follow.

Example entries begin here.
smiles_code=CN1CCN(CCNc2ccn(-c3ccc(Cl)c(Cl)c3)n2)CC1.O=C(O)C(=O)O result="230 to 232 °C"
smiles_code=O=C(O)C(=O)O.c1ccc2cc(-n3ccc(NCCN4CCOCC4)n3)ccc2c1 result="148 to 153 °C"
smiles_code=CN1CCN(CC(=O)Nc2ccn(-c3ccc(Cl)c(Cl)c3)n2)CC1.O=C(O)C(=O)O result="213 to 217 °C"
smiles_code=O=C(CN1CCCC1)Nc1ccn(C2CCCCC2)n1.O=C(O)C(=O)O result="127 to 130 °C"
smiles_code=O=C(CN1CCOCC1)Nc1ccn(-c2ccc3ccccc3c2)n1.O=C(O)C(=O)O result="213 to 217 °C"

For the compound `Clc1ccc(-n2ccc(NCCN3CCCCCC3)n2)cc1Cl.O=C(O)C(=O)O` , what melting point is on record?
157 to 159 °C

---

pKi: −log10 of the molar value.
pKi data for σ1-receptor (Cavia porcellus, UniProt Q60492) follow.
Reported property: pKi

compound="CCN(CC)CC(=O)Nc1ccn(-c2ccc(Cl)c(Cl)c2)n1 [Example 4]" numeric_readout=8.19

[1] Clc1ccc(-n2ccc(NCCN3CCCCC3)n2)cc1Cl.O=C(O)C(=O)O [Example 6, oxalate]
[2] Cc1cc(SCCN2CCOCC2)nn1-c1ccc(Cl)c(Cl)c1.O=C(O)C(=O)O [Example 68, oxalate]
For the pair 1 and 2 , which member has the lower pKi number? Kindly state the label of the option you pick.
2
(2: 7.64, 1: 8.15)
